Where do the numbers come from? From patent US10829484B2.

system: BaF3-FLT3-ITD-F691L (Homo sapiens, UniProt P36888, INS600HVDFREYEYD/F691L, cells depend on it)
Sequence (P36888 with tags, fused parts or gaps INS600HVDFREYEYD/F691L): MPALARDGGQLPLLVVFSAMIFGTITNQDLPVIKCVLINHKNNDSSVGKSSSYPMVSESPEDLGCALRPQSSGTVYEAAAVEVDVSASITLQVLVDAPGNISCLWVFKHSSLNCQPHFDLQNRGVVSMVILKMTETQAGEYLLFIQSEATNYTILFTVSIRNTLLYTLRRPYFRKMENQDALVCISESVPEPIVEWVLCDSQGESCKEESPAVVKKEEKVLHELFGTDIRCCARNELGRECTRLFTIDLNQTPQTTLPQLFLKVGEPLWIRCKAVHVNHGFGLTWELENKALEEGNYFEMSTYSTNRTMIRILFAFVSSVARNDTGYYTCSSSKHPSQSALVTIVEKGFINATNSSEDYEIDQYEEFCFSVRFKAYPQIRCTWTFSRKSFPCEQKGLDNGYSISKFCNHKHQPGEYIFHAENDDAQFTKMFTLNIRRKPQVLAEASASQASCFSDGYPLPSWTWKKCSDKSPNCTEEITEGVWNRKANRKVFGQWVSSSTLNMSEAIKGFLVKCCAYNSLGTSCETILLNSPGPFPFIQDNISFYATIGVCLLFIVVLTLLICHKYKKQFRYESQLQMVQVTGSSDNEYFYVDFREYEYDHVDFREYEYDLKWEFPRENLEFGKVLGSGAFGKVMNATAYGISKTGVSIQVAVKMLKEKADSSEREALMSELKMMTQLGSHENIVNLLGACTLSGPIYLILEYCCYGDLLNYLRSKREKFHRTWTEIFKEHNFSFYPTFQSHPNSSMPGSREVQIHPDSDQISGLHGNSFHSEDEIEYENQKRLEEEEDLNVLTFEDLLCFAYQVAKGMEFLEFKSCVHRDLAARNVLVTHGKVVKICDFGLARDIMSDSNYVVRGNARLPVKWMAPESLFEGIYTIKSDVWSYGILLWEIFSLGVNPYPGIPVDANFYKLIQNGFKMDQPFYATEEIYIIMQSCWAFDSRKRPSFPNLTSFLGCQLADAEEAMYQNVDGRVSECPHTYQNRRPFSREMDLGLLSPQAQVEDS
assayNotes: CTB viability assay CS0047, BaF3-FLT3-ITD-F691L
Assay type: cell-based, murine
condition: BaF3-FLT3-ITD-F691L cells, CellTiter Blue viability, 72 hours; read-out: Cell Assay: CS0047:BaF3-FLT3-ITD-F691L CTB:IC50
The entries below are paired with their reported GI50.
propertyMeasured: GI50

INSERT INTO results (smilesstr, propertymeasured, measurement) VALUES
  ('O=C(O)Cn1cc(Nc2ncc(-c3ccc(CC(=O)Nc4cc(C5(C(F)(F)F)CC5)on4)c(F)c3)cn2)cn1', 'GI50', '10 to 50 nM'),
  ('CCn1cncc1Nc1ncc(-c2ccc(CC(=O)Nc3cc(C4(C(F)(F)F)CC4)on3)c(F)c2)cn1', 'GI50', '10 to 50 nM'),
  ('Cc1c(Nc2ncc(-c3ccc(CC(=O)Nc4cc(C5(C(F)(F)F)CC5)on4)c(F)c3)cn2)ncn1C', 'GI50', '10 to 50 nM');
